tested on: Rat Peripheral Blood Lymphocyte Count; experiment: Measurement of rat peripheral blood lymphocyte count (relative count and ID50) after oral administration; type: in vivo; settings: LEW rats, dosage giving 50% inhibition rate of lymphocyte count
MEASURED PARAMETER: ID50 of rat peripheral blood lymphocyte count (mg/kg)
Value expressed in mg/kg; do not type the unit.

The examples below pair each entry with its known result.
- COMPOUND: "Cc1ccc(CCCC(=O)c2ccc(CC[C@@](C)(N)CO)n2C)cc1.Cl"
  UNIT TEXT: "mg/kg"
  READOUT NUMBER: 0.21
- COMPOUND: "Cn1c(CC[C@@](C)(N)CO)ccc1C(=O)CCCc1ccccc1 [Comparative Compound 2, reference compound]"
  UNIT TEXT: "mg/kg"
  READOUT NUMBER: 0.78
- COMPOUND: "Cc1ccc(CCCC(=O)c2ccc(CC[C@@](C)(N)CO)n2C)cc1C.Cl"
  UNIT TEXT: "mg/kg"
  READOUT NUMBER: 0.42

Request: Supply reported ID50 of rat peripheral blood lymphocyte count belonging to this compound: COc1ccc(CCCC(=O)c2ccc(CC[C@@](C)(N)CO)n2C)cc1C.Cl
Response: 0.39

---

experiment: Rat pharmacokinetics (dosage: 1 mg/kg), blood compound concentrations; format: in vivo; details: male, whole blood, po, LEWIS rats, 1 mg/kg directly into the stomach, read-out: T½ (converted)
Below, each entry is listed alongside its reported half-life.
Dear colleague, please send the value followed by its unit.

The cases that follow already have their half-life on record.
- MOLECULE SMILES: "COc1ccc(CCCC(=O)c2ccc(CC[C@@](C)(N)CO)n2C)cc1C.Cl"
  MEASURED PARAMETER: "half-life"
  RESULT: "362 min"
- MOLECULE SMILES: "Cc1ccc(CCCC(=O)c2ccc(CC[C@@](C)(N)CO)n2C)cc1.Cl"
  MEASURED PARAMETER: "half-life"
  RESULT: "936 min"

Now turn to the next molecule.
Request: Identify the reported half-life for the following entry. Cc1ccc(CCCC(=O)c2ccc(CC[C@@](C)(N)CO)n2C)cc1C.Cl
Response: 510 min

---

assay: Rat pharmacokinetics (dosage: 1 mg/kg), blood compound concentrations; assay type: in vivo; conditions: male, whole blood, po, LEWIS rats, 1 mg/kg directly into the stomach, read-out: AUC (0–24 h)
MEASURED PARAMETER: AUC(0-t) (ng·h/mL)
Write the value in ng·h/mL as a bare number.

These solved cases illustrate the format of a correct answer.
- MOLECULE SMILES: "COc1ccc(CCCC(=O)c2ccc(CC[C@@](C)(N)CO)n2C)cc1C.Cl"
  AUC(0-t) [ng·h/mL]: 71.7
- MOLECULE SMILES: "Cc1ccc(CCCC(=O)c2ccc(CC[C@@](C)(N)CO)n2C)cc1.Cl"
  AUC(0-t) [ng·h/mL]: 288

Proceeding to the next compound to report its AUC(0-t).
Request: Report AUC(0-t) for Cc1ccc(CCCC(=O)c2ccc(CC[C@@](C)(N)CO)n2C)cc1C.Cl
Response: 123
